tested on: A-431; assay: Cytotoxicity against human A431 cells after 96 hrs by SRB assay; format: functional, cell-based; conditions: A-431, 96 h
Entries and their IC50
Provide only the numeric value, understood in µM.

Below: 5 compounds and their reported IC50.
{"COMPOUND": "C=C(C)[C@@H]1CC[C@]2(C(=O)OC)CC[C@]3(C)[C@H](CC[C@@H]4[C@@]5(C)CC[C@H](OC(=O)Nc6ccccc6)C(C)(C)[C@@H]5CC[C@]43C)[C@@H]12", "MEASURED_ON": "A-431", "UNITS": "µM", "IC50": 91.5}
{"COMPOUND": "C=C(C)[C@@H]1CC[C@]2(COC(C)=O)CC[C@]3(C)[C@H](CC[C@@H]4[C@@]5(C)CC[C@H](O)C(C)(C)[C@@H]5CC[C@]43C)[C@@H]12", "MEASURED_ON": "A-431", "UNITS": "µM", "IC50": 12.2}
{"COMPOUND": "C=C(C)[C@@H]1CC[C@]2(COC(C)=O)CC[C@]3(C)[C@H](CC[C@@H]4[C@@]5(C)CC[C@H](OC(=O)NCC)C(C)(C)[C@@H]5CC[C@]43C)[C@@H]12", "MEASURED_ON": "A-431", "UNITS": "µM", "IC50": 5}
{"COMPOUND": "C=C(C)[C@@H]1CC[C@]2(C(=O)O)CC[C@]3(C)[C@H](CC[C@@H]4[C@@]5(C)CC[C@H](OC(=O)NCC)C(C)(C)[C@@H]5CC[C@]43C)[C@@H]12", "MEASURED_ON": "A-431", "UNITS": "µM", "IC50": 15.2}
{"COMPOUND": "C=C(C)[C@@H]1CC[C@]2(C(=O)O)CC[C@]3(C)[C@H](CC[C@@H]4[C@@]5(C)CC[C@H](OC(=O)Nc6ccccc6)C(C)(C)[C@@H]5CC[C@]43C)[C@@H]12", "MEASURED_ON": "A-431", "UNITS": "µM", "IC50": 26.7}

Query string: Recorded IC50 of C=C(C)[C@@H]1CC[C@]2(C(=O)OC)CC[C@]3(C)[C@H](CC[C@@H]4[C@@]5(C)CC[C@H](O)C(C)(C)[C@@H]5CC[C@]43C)[C@@H]12 [METHYL BETULINATE] , please.
Result string: 27

Query string: Moving on to C=C(C)[C@@H]1CC[C@]2(COC(=O)NCC)CC[C@]3(C)[C@H](CC[C@@H]4[C@@]5(C)CC[C@H](OC(=O)NCC)C(C)(C)[C@@H]5CC[C@]43C)[C@@H]12 [BIS(ETHYLCARBAMATE)BETULIN]
Result string: 6.08

Query string: Moving on to C=C(C)[C@@H]1CC[C@]2(C(=O)OC)CC[C@]3(C)[C@H](CC[C@@H]4[C@@]5(C)CC[C@H](OC(=O)NCC)C(C)(C)[C@@H]5CC[C@]43C)[C@@H]12
Result string: 14.8

Query string: Moving on to C=C(C)[C@@H]1CC[C@]2(C(=O)O)CC[C@]3(C)[C@H](CC[C@@H]4[C@@]5(C)CC[C@H](O)C(C)(C)[C@@H]5CC[C@]43C)[C@@H]12
Result string: 12.6

* * *

tested on: A2780; assay: Cytotoxicity against human A2780 cells after 96 hrs by SRB assay; type: functional, cell-based; conditions: A2780, 96 h
MEASUREMENT_LABEL: IC50
Lab note: write values as number then unit, every time.

Below: 5 compounds and their reported IC50.
{"COMPOUND": "C=C(C)[C@@H]1CC[C@]2(C(=O)OC)CC[C@]3(C)[C@H](CC[C@@H]4[C@@]5(C)CC[C@H](OC(=O)Nc6ccccc6)C(C)(C)[C@@H]5CC[C@]43C)[C@@H]12", "VALUE_OBSERVED": "69.5 µM"}
{"COMPOUND": "C=C(C)[C@@H]1CC[C@]2(C(=O)OC)CC[C@]3(C)[C@H](CC[C@@H]4[C@@]5(C)CC[C@H](O)C(C)(C)[C@@H]5CC[C@]43C)[C@@H]12 [METHYL BETULINATE]", "VALUE_OBSERVED": "29.3 µM"}
{"COMPOUND": "C=C(C)[C@@H]1CC[C@]2(COC(=O)NCC)CC[C@]3(C)[C@H](CC[C@@H]4[C@@]5(C)CC[C@H](OC(=O)NCC)C(C)(C)[C@@H]5CC[C@]43C)[C@@H]12 [BIS(ETHYLCARBAMATE)BETULIN]", "VALUE_OBSERVED": "4.37 µM"}
{"COMPOUND": "C=C(C)[C@@H]1CC[C@]2(COC(C)=O)CC[C@]3(C)[C@H](CC[C@@H]4[C@@]5(C)CC[C@H](OC(=O)Nc6ccccc6)C(C)(C)[C@@H]5CC[C@]43C)[C@@H]12", "VALUE_OBSERVED": "84.2 µM"}
{"COMPOUND": "C=C(C)[C@@H]1CC[C@]2(COC(C)=O)CC[C@]3(C)[C@H](CC[C@@H]4[C@@]5(C)CC[C@H](OC(=O)NCC)C(C)(C)[C@@H]5CC[C@]43C)[C@@H]12", "VALUE_OBSERVED": "4.28 µM"}

Query string: Recorded IC50 of C=C(C)[C@@H]1CC[C@]2(C(=O)O)CC[C@]3(C)[C@H](CC[C@@H]4[C@@]5(C)CC[C@H](OC(=O)NCC)C(C)(C)[C@@H]5CC[C@]43C)[C@@H]12 , please.
Result string: 7.41 µM

* * *

system: A2780; test: Cytotoxicity against human A2780 cells after 96 hrs by SRB assay; assay type: functional, cell-based; details: A2780, 96 h
Entries and their pIC50
A value of pIC50 is the negative decimal logarithm of a concentration given in moles per litre.

{"MOLECULE": "C=C(C)[C@@H]1CC[C@]2(C(=O)O)CC[C@]3(C)[C@H](CC[C@@H]4[C@@]5(C)CC[C@H](O)C(C)(C)[C@@H]5CC[C@]43C)[C@@H]12", "pIC50": 4.96}
{"MOLECULE": "C=C(C)[C@@H]1CC[C@]2(COC(C)=O)CC[C@]3(C)[C@H](CC[C@@H]4[C@@]5(C)CC[C@H](O)C(C)(C)[C@@H]5CC[C@]43C)[C@@H]12", "pIC50": 4.93}
{"MOLECULE": "C=C(C)[C@@H]1CC[C@]2(COC(=O)Nc3ccccc3)CC[C@]3(C)[C@H](CC[C@@H]4[C@@]5(C)CC[C@H](OC(=O)Nc6ccccc6)C(C)(C)[C@@H]5CC[C@]43C)[C@@H]12 [BIS(PHENYLCARBAMATE)BETULIN]", "pIC50": 4.09}
{"MOLECULE": "C=C(C)[C@@H]1CC[C@]2(C(=O)O)CC[C@]3(C)[C@H](CC[C@@H]4[C@@]5(C)CC[C@H](OC(=O)Nc6ccccc6)C(C)(C)[C@@H]5CC[C@]43C)[C@@H]12", "pIC50": 4.61}

Now, please, on to the next molecule.
Query string: Recorded pIC50 of C=C(C)[C@@H]1CC[C@]2(C(=O)OC)CC[C@]3(C)[C@H](CC[C@@H]4[C@@]5(C)CC[C@H](OC(=O)NCC)C(C)(C)[C@@H]5CC[C@]43C)[C@@H]12 , please.
Result string: 5.08

* * *

test system: FaDu; assay: Cytotoxicity against human FADU cells after 96 hrs by SRB assay; type: functional, cell-based
MEASUREMENT_LABEL: IC50 (µM)
Provide only the numeric value, understood in µM.

{"CHEMICAL_SMILES": "C=C(C)[C@@H]1CC[C@]2(C(=O)OC)CC[C@]3(C)[C@H](CC[C@@H]4[C@@]5(C)CC[C@H](OC(=O)NCC)C(C)(C)[C@@H]5CC[C@]43C)[C@@H]12", "MEASURED_ON": "FaDu", "MEASUREMENT_LABEL": "IC50", "VALUE_OBSERVED": 5.53}

Now, please, on to the next compound.
Query string: Recorded IC50 of C=C(C)[C@@H]1CC[C@]2(C(=O)O)CC[C@]3(C)[C@H](CC[C@@H]4[C@@]5(C)CC[C@H](O)C(C)(C)[C@@H]5CC[C@]43C)[C@@H]12 , please.
Result string: 10.2

* * *

assay: Cytotoxicity against human 518A2 cells after 96 hrs by SRB assay; format: functional, cell-based; conditions: 518A2, 96 h
Entries and their IC50
Provide only the numeric value, understood in µM.

{"CHEMICAL_SMILES": "C=C(C)[C@@H]1CC[C@]2(COC(C)=O)CC[C@]3(C)[C@H](CC[C@@H]4[C@@]5(C)CC[C@H](OC(=O)NCC)C(C)(C)[C@@H]5CC[C@]43C)[C@@H]12", "UNITS": "µM", "IC50": 5.12}
{"CHEMICAL_SMILES": "C=C(C)[C@@H]1CC[C@]2(C(=O)O)CC[C@]3(C)[C@H](CC[C@@H]4[C@@]5(C)CC[C@H](OC(=O)NCC)C(C)(C)[C@@H]5CC[C@]43C)[C@@H]12", "UNITS": "µM", "IC50": 17.8}
{"CHEMICAL_SMILES": "C=C(C)[C@@H]1CC[C@]2(C(=O)O)CC[C@]3(C)[C@H](CC[C@@H]4[C@@]5(C)CC[C@H](OC(=O)Nc6ccccc6)C(C)(C)[C@@H]5CC[C@]43C)[C@@H]12", "UNITS": "µM", "IC50": 51.5}

Query string: Recorded IC50 of C=C(C)[C@@H]1CC[C@]2(COC(C)=O)CC[C@]3(C)[C@H](CC[C@@H]4[C@@]5(C)CC[C@H](O)C(C)(C)[C@@H]5CC[C@]43C)[C@@H]12 , please.
Result string: 15.8
